B1: Hairpin Ribozyme (parent)
chain: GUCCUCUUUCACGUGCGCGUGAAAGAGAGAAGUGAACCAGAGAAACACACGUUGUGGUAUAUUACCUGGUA

# Variants of: B1
# ASSAY_PROTOCOL: self-cleavage, relative activity (ratio to wild type); higher = more cleavage; co-transcriptional
Respond with Y for self-cleavage values of 0.2 and above, N for values below.

Would you say A41U U55C shows self-cleavage at minimum 0.2? Y

Would you say U14C G40C shows self-cleavage at minimum 0.2? N

Would you say C4U U33C shows self-cleavage at minimum 0.2? Y

Would you say G15U U53G shows self-cleavage at minimum 0.2? Y

Would you say U2A A47U shows self-cleavage at minimum 0.2? N

Would you say C10G G15C shows self-cleavage at minimum 0.2? Y

Would you say A39U C66G shows self-cleavage at minimum 0.2? N

Would you say C10A G57C shows self-cleavage at minimum 0.2? N

Would you say G13A G15A shows self-cleavage at minimum 0.2? Y

Would you say A35C A47U shows self-cleavage at minimum 0.2? N

Would you say A47C A61G shows self-cleavage at minimum 0.2? N

Would you say A30G G42U shows self-cleavage at minimum 0.2? N

Would you say C10G A61G shows self-cleavage at minimum 0.2? Y

Would you say G1C C65U shows self-cleavage at minimum 0.2? N

Would you say U7A U14C shows self-cleavage at minimum 0.2? Y

Would you say G42C C46A shows self-cleavage at minimum 0.2? N

Would you say C6G G51C shows self-cleavage at minimum 0.2? Y

Would you say C12G A36U shows self-cleavage at minimum 0.2? Y

Would you say A22G U67A shows self-cleavage at minimum 0.2? Y

Would you say A28G U70G shows self-cleavage at minimum 0.2? Y

Would you say G19A C38U shows self-cleavage at minimum 0.2? Y
